# target: recombinant human MAPKAP-K2 (Homo sapiens)
# testSummary: Inhibitory activity against MAPKAP-K2 enzyme (33P-ATP peptide phosphorylation)
# conditionParameters: recombinant human MAPKAP-K2, ATP 20 μmol/L solution, room temperature 30 min; read-out: Activity Strength (MAPKAP-K2 IC50 value)
pIC50: −log10 of the molar value. Where a name gives a salt, the structure may show the parent alone.
pIC50: recorded values
measuredParameter: pIC50

compound | measuredParameter | recordedMeasurement
CCOc1ccc(Nc2c(C)c(NCCCCN)c(C#N)c3ccnn23)cc1 [Compound 108, trifluoroacetate salt] | pIC50 | 6.00 to 6.70
C=CCc1c(N[C@H]2CCCNC2)c(C#N)c2ccnn2c1Nc1ccc(OCC)cc1 [Compound 86, trifluoroacetate salt] | pIC50 | > 6.70
CCCc1c(N[C@H]2CC[C@H](N)CC2)c(C#N)c2ccnn2c1Nc1ccc(OCC)cc1 [Compound 122] | pIC50 | > 6.70
CCOc1ccc(Nc2c(C)c(NCC3CCCCN3)c(C#N)c3ccnn23)cc1 (stereo not shown) [Compound 119, trifluoroacetate salt] | pIC50 | 5.00 to 6.00
CCOc1ccc(Nc2c(C(C)C)c(N[C@H]3CC[C@H](N)CC3)c(C#N)c3ccnn23)cc1 [Compound 124] | pIC50 | > 6.70
CCOc1ccc(Nc2c(C)c(N[C@H]3CC[C@H](NCc4ccccc4)CC3)c(C#N)c3ccnn23)cc1 [Compound 115, trifluoroacetate salt] | pIC50 | 6.00 to 6.70
CCOc1ccc(Nc2cc(N[C@H]3CCCNC3)c(C#N)c3ccnn23)cc1 [Compound 92, trifluoroacetate salt] | pIC50 | 6.00 to 6.70

* * *

# target: recombinant human MAPKAP-K2 (Homo sapiens, UniProt P49137)
# Sequence (P49137 whole entry): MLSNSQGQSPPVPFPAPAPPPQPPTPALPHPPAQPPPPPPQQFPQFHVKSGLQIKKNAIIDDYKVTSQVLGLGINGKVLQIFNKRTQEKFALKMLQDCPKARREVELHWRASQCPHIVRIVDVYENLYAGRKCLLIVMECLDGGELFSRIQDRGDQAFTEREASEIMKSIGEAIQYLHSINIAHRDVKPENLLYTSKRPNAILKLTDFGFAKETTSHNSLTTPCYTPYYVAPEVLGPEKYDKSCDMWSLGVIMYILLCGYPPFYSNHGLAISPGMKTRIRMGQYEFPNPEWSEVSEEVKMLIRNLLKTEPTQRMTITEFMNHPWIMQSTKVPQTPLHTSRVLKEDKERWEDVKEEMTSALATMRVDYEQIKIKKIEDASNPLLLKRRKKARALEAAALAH
# testSummary: Inhibitory activity against MAPKAP-K2 enzyme (33P-ATP peptide phosphorylation)
# conditionParameters: recombinant human MAPKAP-K2, ATP 20 μmol/L solution, room temperature 30 min; read-out: Activity Strength (MAPKAP-K2 IC50 value)
pIC50: −log10 of the molar value. Structures can show the parent of a compound that is named as a salt.
The following compounds are listed with their measured pIC50 values.
measuredParameter: pIC50

compound | recordedMeasurement
CCOc1ccc(Nc2c(C)c(NCCC3CCCN3)c(C#N)c3ccnn23)cc1 (centres unmarked) [Compound 129, trifluoroacetate salt] | 5.00 to 6.00
CSc1ccccc1Nc1cc(N[C@H]2CC[C@H](N)CC2)c(C#N)c2ccnn12 [Compound 99, trifluoroacetate salt] | 5.00 to 6.00
N#Cc1c(N[C@H]2CC[C@H](N)CC2)cc(Nc2ccccc2Cl)n2nccc12 [Compound 94, trifluoroacetate salt] | 6.00 to 6.70
CCOc1ccc(Nc2c(C)c(N[C@H]3CC[C@H](NCC4CCCCC4)CC3)c(C#N)c3ccnn23)cc1 [Compound 126, trifluoroacetate salt] | 6.00 to 6.70
CCOc1ccc(Nc2c(C)c(NC3CCNCC3)c(C#N)c3ccnn23)cc1 [Compound 103, trifluoroacetate salt] | 6.00 to 6.70
N#Cc1c(N[C@H]2CC[C@H](N)CC2)cc(Nc2ccc(-c3ccccc3)cc2)n2nccc12 [Compound 97, trifluoroacetate salt] | > 6.70
CCOc1ccc(Nc2c(C)c(NCCCNC3CCCCC3)c(C#N)c3ccnn23)cc1 [Compound 120, trifluoroacetate salt] | 5.00 to 6.00
CCOc1ccc(Nc2c(C)c(NC3CCCC(N)C3)c(C#N)c3ccnn23)cc1 (centres unmarked) [Compound 104, trifluoroacetate salt] | 5.00 to 6.00
CCOc1ccc(Nc2c(C)c(NC3CNCc4ccccc43)c(C#N)c3ccnn23)cc1 (centres unmarked) [Compound 127, trifluoroacetate salt] | 5.00 to 6.00
CCOc1ccc(Nc2c(C)c(NCCCCCCN)c(C#N)c3ccnn23)cc1 [Compound 132, trifluoroacetate salt] | 4.00 to 5.00
CCOc1ccc(Nc2c(C)c(N[C@H]3CC[C@H](NCC(C)C)CC3)c(C#N)c3ccnn23)cc1 [Compound 110, trifluoroacetate salt] | > 6.70
COCCOc1ccc(Nc2c(C)c(N[C@H]3CCCNC3)c(C#N)c3ccnn23)cc1 [Compound 87, trifluoroacetate salt] | > 6.70
CCOc1ccc(Nc2c(C)c(NCCN)c(C#N)c3ccnn23)cc1 [Compound 106, trifluoroacetate salt] | 6.00 to 6.70
Cc1c(N[C@H]2CCCNC2)c(C#N)c2ccnn2c1Nc1ccc2ncsc2c1 [Compound 117, trifluoroacetate salt] | > 6.70

* * *

# target: recombinant human MAPKAP-K2 (Homo sapiens, UniProt P49137)
# testSummary: Inhibitory activity against MAPKAP-K2 enzyme (33P-ATP peptide phosphorylation)
# conditionParameters: recombinant human MAPKAP-K2, ATP 20 μmol/L solution, room temperature 30 min; read-out: Activity Strength (MAPKAP-K2 IC50 value)
pIC50: −log10 of the molar value. Structures can show the parent of a compound that is named as a salt.
Reported pIC50 values follow for various compounds

compound | pIC50
CCOc1ccc(Nc2c(C)c(NCCC3CCCCN3)c(C#N)c3ccnn23)cc1 (stereo not shown) [Compound 113, trifluoroacetate salt] | 4.00 to 5.00
CCOc1ccc(Nc2c(C)c(N[C@H]3CCCC[C@@H]3N)c(C#N)c3ccnn23)cc1 (relative stereo) [Compound 101, trifluoroacetate salt] | 4.00 to 5.00
CCOc1ccc(Nc2c(C)c(NCCC3CCCN3C)c(C#N)c3ccnn23)cc1 (stereo not shown) [Compound 133, trifluoroacetate salt] | 4.00 to 5.00
N#Cc1c(N[C@H]2CCCNC2)cc(Nc2ccc(-c3ccccc3)cc2)n2nccc12 [Compound 100, trifluoroacetate salt] | 6.00 to 6.70
CCOc1ccc(Nc2c(CCO)c(N[C@H]3CCCNC3)c(C#N)c3ccnn23)cc1 | > 6.70
N#Cc1c(N[C@H]2CCCNC2)cc(Nc2ccccc2Cl)n2nccc12 [Compound 93, trifluoroacetate salt] | 6.00 to 6.70
CCOc1ccc(Nc2c(C3CC3)c(N[C@H]3CC[C@H](N)CC3)c(C#N)c3ccnn23)cc1 | > 6.70
Cc1c(N[C@H]2CCCNC2)c(C#N)c2ccnn2c1Nc1ccccc1 [Compound 111, trifluoroacetate salt] | > 6.70
CCOc1ccc(Nc2c(C)c(NCC3CCNC3)c(C#N)c3ccnn23)cc1 (stereo not shown) [Compound 112, trifluoroacetate salt] | 5.00 to 6.00
COCCOc1ccc(Nc2c(C)c(N[C@H]3CC[C@H](N)CC3)c(C#N)c3ccnn23)cc1 [Compound 89, trifluoroacetate salt] | > 6.70
CCOc1ccc(Nc2c(C)c(N[C@H]3CC[C@H](N)CC3)c(C#N)c3ccnn23)cc1 [Compound 102, trifluoroacetate salt] | > 6.70
CCOc1ccc(Nc2c(C(C)C)c(N[C@H]3CCCNC3)c(C#N)c3ccnn23)cc1 | > 6.70
CCOc1ccc(Nc2c(CC)c(N[C@H]3CC[C@H](N)CC3)c(C#N)c3ccnn23)cc1 | > 6.70
CCOc1ccc(Nc2c(-c3ccccc3)c(NC3CCCNC3)c(C#N)c3ccnn23)cc1 (stereo not shown) [Compound 95, trifluoroacetate salt] | 6.00 to 6.70
COc1ccccc1Nc1cc(N[C@H]2CC[C@H](N)CC2)c(C#N)c2ccnn12 [Compound 98, trifluoroacetate salt] | 6.00 to 6.70
CCOc1ccc(Nc2c(C)c(NCCCN)c(C#N)c3ccnn23)cc1 [Compound 107, trifluoroacetate salt] | 6.00 to 6.70
CCOc1ccc(Nc2c(C)c(N[C@H]3CC[C@H](NCCCc4ccccc4)CC3)c(C#N)c3ccnn23)cc1 [Compound 116, trifluoroacetate salt] | 6.00 to 6.70
CCOc1ccc(Nc2c(C)c(N[C@H]3CCCNC3)c(C#N)c3ccnn23)cc1 | > 6.70
CCOc1ccc(Nc2c(C)c(NCC3CCCNC3)c(C#N)c3ccnn23)cc1 (stereo not shown) [Compound 128, trifluoroacetate salt] | 5.00 to 6.00
CCCc1c(N[C@H]2CCCNC2)c(C#N)c2ccnn2c1Nc1ccc(OCC)cc1 | > 6.70
Cc1nc2ccc(Nc3c(C)c(N[C@H]4CCCNC4)c(C#N)c4ccnn34)cc2s1 | > 6.70
COCCOc1ccc(Nc2c(C)c(N[C@H]3CCNC3)c(C#N)c3ccnn23)cc1 [Compound 88, trifluoroacetate salt] | 6.00 to 6.70
CCc1nc2ccc(Nc3c(C)c(N[C@H]4CCCNC4)c(C#N)c4ccnn34)cc2s1 [Compound 118, trifluoroacetate salt] | > 6.70
CCOc1ccc(Nc2c(C)c(N[C@H]3CC[C@H](NCCc4ccccc4)CC3)c(C#N)c3ccnn23)cc1 [Compound 125, trifluoroacetate salt] | 6.00 to 6.70
CCOc1ccc(Nc2c(C3CC3)c(N[C@H]3CCCNC3)c(C#N)c3ccnn23)cc1 | 6.00 to 6.70
CCOc1ccc(Nc2c(CC)c(N[C@H]3CCCNC3)c(C#N)c3ccnn23)cc1 | > 6.70
Cc1nc2ccc(Nc3cc(N[C@H]4CC[C@H](N)CC4)c(C#N)c4ccnn34)cc2s1 [Compound 96, trifluoroacetate salt] | 6.00 to 6.70
CCOc1ccc(Nc2c(C)c(NCC3CCCN3)c(C#N)c3ccnn23)cc1 (stereo not shown) [Compound 114, trifluoroacetate salt] | 5.00 to 6.00
